Data origin: patent US10864248B2

Below: a set of entries, each annotated with reported Ki.
experimentalSystem: Dab2-DH domain (Homo sapiens (Human))
Sequence (P98082 33-191): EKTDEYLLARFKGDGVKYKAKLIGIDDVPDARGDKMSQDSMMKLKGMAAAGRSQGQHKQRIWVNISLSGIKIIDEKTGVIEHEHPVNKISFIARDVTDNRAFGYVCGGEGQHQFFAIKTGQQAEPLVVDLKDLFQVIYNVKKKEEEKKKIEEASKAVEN
methodSummary: Fluorescence polarization competition assay to identify small molecule inhibitors
Type: binding
protocolConditions: FP competition, reporter F*-STA02; read-out: Ki
Numeric answer only, unit µM assumed.

{"columns": ["molecule", "Ki, µM"],
 "data": [
  ["CN1CCc2cccc3c2[C@@H]1Cc1ccc(O)c(O)c1-3.Cl [Compound 1, Hydrochloride]", 1.92]
]}

The record that follows has no Ki shown yet.
Returns the measured Ki for the input molecule. Input: CC1(C)Cc2ccccc2-c2n[nH]c(=S)n21 0.779
